Test Summary: Cytotoxicity against mouse B16-4A5 cells assessed as viable cells at 30 uM after 72 hrs by WST-8 assay
Format: cell-based
Test Parameters: read-out: Activity
Quantity Measured: viability at 72 h, 30 µM

Recorded results for 4 compounds are shown here.
>>> test_value("O=C[C@]1(/C=C\\O[C@@H]2O[C@H](CO)[C@@H](O)[C@H](O)[C@H]2O)CC[C@H](COC(=O)C2=Cc3ccc(O)c(O)c3[C@@H](c3ccc(O)cc3)[C@@H]2C(=O)OC[C@H]2CC[C@](C=O)(/C=C\\O[C@@H]3O[C@H](CO)[C@@H](O)[C@H](O)[C@H]3O)[C@@H](O)C2)C[C@@H]1O")
"> 80.3%"
>>> test_value("O=C(OC[C@H]1CC[C@](CO)(CCO)[C@@H](O)C1)C(=C/c1ccc(O)cc1)/C(=C\\c1ccc(O)c(O)c1)C(=O)OC[C@H]1CC[C@](CO)(CCO)[C@@H](O)C1")
"> 95.2%"
>>> test_value("COc1ccc(/C=C(C(=O)OC[C@H]2CC[C@](CO)(CCO)[C@@H](O)C2)\\C(=C/c2ccc(OC)c(OC)c2)C(=O)OC[C@H]2CC[C@](CO)(CCO)[C@@H](O)C2)cc1")
"68.8%"
>>> test_value("CC(C)[C@@H]1CC[C@@](C)(O)[C@H]2CCC(C=O)=C[C@@H]12")
"> 80.3%"

Shifting focus to the compound that follows.
# input Which measured viability at 72 h, 30 µM value corresponds to O=C(OC[C@H]1CC[C@](CO)(CCO[C@@H]2O[C@H](CO)[C@@H](O)[C@H](O)[C@H]2O)[C@@H](O)C1)C(=C/c1ccc(O)cc1)/C(=C\c1ccc(O)c(O)c1)C(=O)OC[C@H]1CC[C@](CO)(CCO[C@@H]2O[C@H](CO)[C@@H](O)[C@H](O)[C@H]2O)[C@@H](O)C1 ?
# output > 80.3%

====

Test Summary: Cytotoxicity against mouse B16-4A5 cells assessed as viable cells at 10 uM after 72 hrs by WST-8 assay
Format: cell-based
Test Parameters: read-out: Activity
Quantity Measured: viability at 72 h, 10 µM (%)
Form entry: value (%) — number only.

>>> test_value("CC1(C)C[C@H](OC(=O)c2ccccc2)[C@@]23CC[C@@H](O)[C@@](C)(CC[C@H]12)C3")
75.9

# input What value of viability at 72 h, 10 µM has been reported for the following compound? COc1ccc(/C=C(C(=O)OC[C@H]2CC[C@](CO)(CCO)[C@@H](O)C2)\C(=C/c2ccc(OC)c(OC)c2)C(=O)OC[C@H]2CC[C@](CO)(CCO)[C@@H](O)C2)cc1
# output 82

====

Parameter viability at 72 h, 30 µM: see the listing below.
Test Summary: Cytotoxicity against mouse B16-4A5 cells assessed as viable cells at 30 uM after 72 hrs by WST-8 assay
Type: cell-based
Test Parameters: read-out: Activity

Before answering, review these 6 worked examples.
>>> test_value("OC[C@H]1CC[C@](CO)(CCO[C@@H]2O[C@H](CO)[C@@H](O)[C@H](O)[C@H]2O)[C@@H](O)C1")
"> 80.3%"
>>> test_value("OCC[C@@]1(CO)CC[C@H](CO)C[C@@H]1O")
"> 95.2%"
>>> test_value("CC(C)[C@@H]1CC[C@@]2(C)[C@H](O)CCC(C=O)=C[C@@H]12 [APHANAMOL II]")
"> 74.5%"
>>> test_value("CC(C)[C@@H]1CC[C@@](C)(O)[C@@H]2CCC(C=O)=C[C@H]21")
"> 80.3%"
>>> test_value("C=C1/C=C/[C@H](C(C)C)CCC(=C)[C@H](O)CC1")
"> 95.2%"
>>> test_value("COC(=O)C(=C/c1ccc(OC)cc1)/C(=C\\c1ccc(OC)c(OC)c1)C(=O)OC")
"> 74.5%"

# input Which value of viability at 72 h, 30 µM has been reported for CO[C@@H]1C[C@]2(CC[C@H](COC(=O)/C=C/c3ccc(O)c(O)c3)C[C@@H]2O)[C@@H](OC)O1 in the records?
# output > 95.2%

# input Ok, now O=C[C@]1(/C=C\O[C@@H]2O[C@H](CO)[C@@H](O)[C@H](O)[C@H]2O)CC[C@H](COC(=O)/C=C/c2ccc(O)c(O)c2)C[C@@H]1O
# output > 95.2%

# input Same again, this time with C=C1CC[C@@H](O)[C@]2(C)CC[C@@H](C(C)C)[C@H](O)[C@@H]12
# output > 74.5%
